# System: MS2 coat protein
# protocol_description: apparent Kd, MS2 coat protein; higher = weaker binding; RNA-MaP array; FMN 200 µM where present
# condition_context: ligand present: flavin mononucleotide; designed as: OFF switch for flavin mononucleotide
endpoint_label: apparent Kd (nM)
Answers are plain numbers, in nM.

Before answering, review these 5 worked examples.
input_sequence | apparent Kd / nM
GAAGUUGGUAGGCCCUCGGAACAUGAGGAUCACCCAUGUAAGGAGGAUAUGCCCGGUACCCGCUGGCAGAAGGCCUUAUAAGAA | 68.8
CUUUUGUGAGGAUAUCAGGUGUGCUAGCGUACUGGUACAUCUGAGAAGGCACAUGAGGAUCACCCAUGUUCCUC | 238
UUUUAACAGUCAGGAUAUGUAACGCACAACGGCGCAGAAGGGACAUGAGGAUCACCCAUGUUAUGGUUCUGGUACUAUGACGUU | 23.1
CCAGCCGUUCAAGGAUAUGACAUGAGGAUCACCCAUGUGAAGUCGAACAUUGAUGCACACCUUAGUCAGAAGGUGGAUGGGUCU | 96.5
AAAGAACUAGGAUAUACAUGAGGAUCACCCAUGUGCAGCUUAACGGCUCACACCUUAUGUAGAAGGAGUGACCG | 19.3

For each of the sequences below, note its apparent Kd.
1. GGUGGCGUGAUAACGCUAGAUAUAACAUGAGGAUCACCCAUGUAGGAUAUCCCGCCGUGAGGGCGGGAGAAGGACAACCGAUGG
2. GUCGUGUGAGGAUAUGAUUAAUAGACGGGAUUGCGACUGCAUCAGAAGGCACAUGAGGAUCACCCAUGUAUGAA

[34.9, 63.5]
